protocol-description: Biodistribution experiments in normal mice after i.v. injection
Type: in vivo
measurement-context: male, ddY, mouse, in vivo, iv, total radioactivity, Biodistribution of radioactivity, Liver
Where a SMILES comes first, the peptide text is derived from it. [ ]: non-standard residue; d: D form. The star is where a group is joined. DOTA = O=C(O)CN1CCN(CC(=O)O)CCN(CC(=O)*)CCN(CC(=O)O)CC1
measured-metric: tissue uptake dose at 3 h (%ID)
Give bare numbers, in %ID.

Answered cases to consult:
Give tissue uptake dose at 3 h for the following compound: O=C(O)C[C@@H](NC(=O)[C@@H](CC(=O)O)NC(=O)[C@@H](CC(=O)O)NC(=O)[C@@H](CC(=O)O)NC(=O)[C@@H](CC(=O)O)NC(=O)[C@@H](CC(=O)O)NC(=O)[C@@H](CC(=O)O)NC(=O)[C@@H](CC(=O)O)NC(=O)CN1CCN(CC(=O)O)CCN(CC(=O)O)CCN(CC(=O)O)CC1)C(=O)O [^67Ga-DOTA-(D-Asp)8, metal not drawn] ({DOTA}-[dD][dD][dD][dD][dD][dD][dD][dD]-OH) 0.11

Please report the measured tissue uptake dose at 3 h for O=C(O)CC[C@@H](NC(=O)[C@@H](CCC(=O)O)NC(=O)[C@@H](CCC(=O)O)NC(=O)[C@@H](CCC(=O)O)NC(=O)[C@@H](CCC(=O)O)NC(=O)[C@@H](CCC(=O)O)NC(=O)[C@@H](CCC(=O)O)NC(=O)[C@@H](CCC(=O)O)NC(=O)[C@@H](CCC(=O)O)NC(=O)[C@@H](CCC(=O)O)NC(=O)[C@@H](CCC(=O)O)NC(=O)[C@@H](CCC(=O)O)NC(=O)[C@@H](CCC(=O)O)NC(=O)[C@@H](CCC(=O)O)NC(=O)CN1CCN(CC(=O)O)CCN(CC(=O)O)CCN(CC(=O)O)CC1)C(=O)O [^67Ga-DOTA-(D-Glu)14, metal not drawn] 0.08

Retrieve tissue uptake dose at 3 h measured for O=C(O)CC[C@H](NC(=O)[C@H](CCC(=O)O)NC(=O)[C@H](CCC(=O)O)NC(=O)[C@H](CCC(=O)O)NC(=O)[C@H](CCC(=O)O)NC(=O)[C@H](CCC(=O)O)NC(=O)[C@H](CCC(=O)O)NC(=O)[C@H](CCC(=O)O)NC(=O)[C@H](CCC(=O)O)NC(=O)[C@H](CCC(=O)O)NC(=O)[C@H](CCC(=O)O)NC(=O)[C@H](CCC(=O)O)NC(=O)[C@H](CCC(=O)O)NC(=O)[C@H](CCC(=O)O)NC(=O)CN1CCN(CC(=O)O)CCN(CC(=O)O)CCN(CC(=O)O)CC1)C(=O)O [^67Ga-DOTA-(L-Glu)14, metal not drawn] and print it. 0.14

Give reported tissue uptake dose at 3 h value for O=C(O)C[C@@H](NC(=O)[C@@H](CC(=O)O)NC(=O)CN1CCN(CC(=O)O)CCN(CC(=O)O)CCN(CC(=O)O)CC1)C(=O)O [^67Ga-DOTA-(D-Asp)2, metal not drawn] ({DOTA}-[dD]-[dD]-OH) 0.11

Field: next compound
Return value of tissue uptake dose at 3 h for input O=C(O)C[C@@H](NC(=O)[C@@H](CC(=O)O)NC(=O)[C@@H](CC(=O)O)NC(=O)[C@@H](CC(=O)O)NC(=O)[C@@H](CC(=O)O)NC(=O)CN1CCN(CC(=O)O)CCN(CC(=O)O)CCN(CC(=O)O)CC1)C(=O)O [^67Ga-DOTA-(D-Asp)5, metal not drawn] ({DOTA}-[dD][dD][dD][dD][dD]-OH) , no commentary. 0.14
